Recorded values, source ChEMBL document CHEMBL4725320.

pEC50: recorded values
# TESTED SYSTEM: UniProt:P20393
# Sequence (P20393 whole entry): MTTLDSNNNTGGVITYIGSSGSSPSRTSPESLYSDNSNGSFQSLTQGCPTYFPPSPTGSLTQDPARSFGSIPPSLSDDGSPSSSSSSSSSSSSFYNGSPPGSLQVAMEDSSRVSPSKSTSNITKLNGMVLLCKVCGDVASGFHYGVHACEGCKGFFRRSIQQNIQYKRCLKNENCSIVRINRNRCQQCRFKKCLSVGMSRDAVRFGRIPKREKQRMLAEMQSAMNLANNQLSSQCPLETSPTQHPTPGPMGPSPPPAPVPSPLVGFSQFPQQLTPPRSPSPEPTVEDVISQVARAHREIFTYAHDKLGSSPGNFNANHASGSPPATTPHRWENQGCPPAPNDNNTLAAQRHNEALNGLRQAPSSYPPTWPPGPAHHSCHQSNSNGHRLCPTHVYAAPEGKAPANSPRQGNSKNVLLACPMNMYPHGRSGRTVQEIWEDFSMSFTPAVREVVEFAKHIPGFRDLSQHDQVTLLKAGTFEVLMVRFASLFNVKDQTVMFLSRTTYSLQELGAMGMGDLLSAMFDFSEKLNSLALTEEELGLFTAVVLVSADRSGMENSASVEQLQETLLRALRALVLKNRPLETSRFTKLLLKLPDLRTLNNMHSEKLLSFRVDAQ
# ASSAY NOTES: Antagonist activity at Rev-Erb alpha (unknown origin) by BMAL1-luciferase reporter assay
Scale for pEC50: -log10 of concentration given in mol/L; no unit attached.

The following compounds have reported results that may help.
{"COMPOUND": "O=C(Nc1ccccc1)N1CCC(CN(Cc2ccc(Cl)cc2)Cc2ccc([N+](=O)[O-])s2)CC1", "MEASURED RESULT": 5.89}
{"COMPOUND": "Cc1cc(Cl)cc(CN(Cc2ccc(Cl)cc2)Cc2ccc([N+](=O)[O-])s2)c1", "MEASURED RESULT": 5.69}
{"COMPOUND": "CCOC(=O)C1Cc2ccccc2CN1C(=O)c1ccc(SC)s1 (centres undefined)", "MEASURED RESULT": 6.33}

Now, please, on to the next compound.
Entry CCOC(=O)C1Cc2ccccc2CN1C(=O)c1ccc(C)o1 (centres undefined) : reported pEC50 = ?
5.89
